Test system: PC-3
test details: Cytotoxic activity on human PC3 prostate cancer cells by SRB assay
Format: functional
setup conditions: Homo sapiens, PC-3

| entry smiles | tested on | output unit | LC50 (50% lethal concentration) |
| --- | --- | --- | --- |
| COc1cccc(OC)c1OCCNCCOc1ccccc1OCc1ccc(Cl)cc1 | PC-3 | µM | 52.5 |
| COc1cccc(OC)c1OCCNCCOc1ccccc1OCc1cccc(Cl)c1 | PC-3 | µM | 58.9 |
| COc1ccccc1COc1ccccc1OCCNCCOc1c(OC)cccc1OC | PC-3 | µM | 100 |
| COc1cccc(OC)c1OCCNCCOc1ccccc1OCc1ccc(C)cc1 | PC-3 | µM | 61.7 |
| COc1cccc(OC)c1OCCNCCOc1ccccc1OCc1ccccc1Cl | PC-3 | µM | 58.9 |

Just for reference, ChEMBL document CHEMBL1141864 is where these values come from.
